- Test system: human colon cancer cell line HCT116
- Assay Procedure: In vitro tumor cell proliferation inhibition assay (SRB method), HCT116
- Type: cell-based
- Stated Conditions: HCT-116, test compounds 10 μM, 72 hours, SRB, read-out: Inhibition rate on HCT116
Quantity Kind: inhibition at 10 µM (%)
Report the figure in % without appending any unit label.

Short answer please: inhibition at 10 µM, human colon cancer cell line HCT116, entry "COc1c(CNC(=O)CCl)c(C)cc(C)c1CNC(=O)CCl" 69.3

Request body: readout inhibition at 10 µM, system human colon cancer cell line HCT116, query "C=CC(=O)NCc1cc(C(C)=O)c(O)c(CNC(=O)C=C)c1O" . Return the value. 33.9

Lab request: please report inhibition at 10 µM under test system human colon cancer cell line HCT116 for "Cc1c(O)c(CNC(=O)CCl)cc(CNC(=O)CCl)c1O" 76.5

Lab note: need inhibition at 10 µM with human colon cancer cell line HCT116 for entry "COC(=O)c1cc(O)c(O)c(O)c1CNC(=O)CCl" , please look it up. 47.6

Value wanted: inhibition at 10 µM (human colon cancer cell line HCT116) of entry "COC(=O)c1cc(O)c(O)c(O)c1CNC(=O)c1ccccc1" 34.1

Could you share what inhibition at 10 µM was measured for "CCCOC(=O)c1cc(O)c(O)c(O)c1CNC(=O)CCl" , tested on human colon cancer cell line HCT116? 37.8

Lookup: inhibition at 10 µM / human colon cancer cell line HCT116 / "COC(=O)c1cc(O)c(O)c(O)c1CNC(C)=O" 34.8

Lookup: inhibition at 10 µM / human colon cancer cell line HCT116 / "CC(=O)NCc1c(O)c(O)c(O)c(CNC(C)=O)c1C(=O)O" 82

Report inhibition at 10 µM for "C=CC(=O)NCc1c(O)c(Br)c(O)c(CNC(=O)C=C)c1C(=O)O" tested on human colon cancer cell line HCT116. 91.5

Record lookup: for human colon cancer cell line HCT116, what inhibition at 10 µM belongs to "Cc1c(C)c(CNC(=O)CCl)c(C)c(CNC(=O)CCl)c1O" ? 97.3

State its inhibition at 10 µM on human colon cancer cell line HCT116: "C=CC(=O)NCc1cc(CNC(=O)C=C)c(O)c(C(C)=O)c1O" 27.7

Any idea what inhibition at 10 µM came out for "CCCOC(=O)c1cc(O)c(O)c(O)c1CNC(C)=O" on human colon cancer cell line HCT116? 38.2

Query the reported inhibition at 10 µM for human colon cancer cell line HCT116; item: "C=CC(=O)NCc1c(C(=O)OCCC)cc(O)c(O)c1O" 29.1

Reference source for all entries: patent US20260055051A1
